experiment: Compound dose toxic against macrophages of Trypanosoma cruzi; format: ADME
parameter: Toxic dose (µM)
Note: unit µM is implicit; provide only the numeric part.

Solved entries (count: 3):
- CC1=C(CCC(=O)NCCCN2CCN(C)CC2)C(=O)c2c(O)cccc2C1=O: 10
- CC1=C(NCCCN2CCN(CCCNC3=C(C)C(=O)c4ccccc4C3=O)CC2)C(=O)c2ccccc2C1=O: 30
- CC1=C(NCCCN2CCN(CCCN)CC2)C(=O)c2c(O)cccc2C1=O: 3

Now for a further compound.
Note Toxic dose for the compound shown: CC1=C(NCCCNCCC/N=C2/C(=O)c3ccccc3C(O)=C2C)C(=O)c2ccccc2C1=O
10

###

target: Trypanothione reductase (Trypanosoma cruzi, UniProt P28593); assay: Inhibitory activity against Trypanosoma cruzi trypanothione disulfide reductase, assay in presence of 57 uM T(S)2.
Sequence (P28593 whole entry): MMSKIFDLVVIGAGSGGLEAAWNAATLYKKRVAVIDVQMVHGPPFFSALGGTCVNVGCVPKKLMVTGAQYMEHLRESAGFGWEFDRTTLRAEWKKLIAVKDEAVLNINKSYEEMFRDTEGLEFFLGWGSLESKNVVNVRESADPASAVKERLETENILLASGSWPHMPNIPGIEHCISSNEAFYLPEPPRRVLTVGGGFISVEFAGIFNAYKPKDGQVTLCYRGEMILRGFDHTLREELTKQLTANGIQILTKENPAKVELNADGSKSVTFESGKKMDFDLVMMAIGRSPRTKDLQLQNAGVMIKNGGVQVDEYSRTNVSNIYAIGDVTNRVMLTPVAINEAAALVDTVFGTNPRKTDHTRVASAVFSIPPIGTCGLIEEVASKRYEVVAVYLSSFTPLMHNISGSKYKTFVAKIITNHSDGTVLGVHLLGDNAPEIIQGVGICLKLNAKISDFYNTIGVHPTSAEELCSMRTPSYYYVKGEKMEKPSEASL
Listed molecules paired with reported pIC50
Scale: pIC50 equals -log10([C]), with [C] in mol/L.

Solved cases (2 shown):
• CC1=C(NCCCN2CCN(CCCN)CC2)C(=O)c2ccccc2C1=O = 5.22
• CC1=C(NCCCNCCCN)C(=O)c2ccccc2C1=O = 4.92

# return recorded pIC50 for input CN1CCN(C(=O)CCCCC2=C(CCCCC(=O)N3CCN(C)CC3)C(=O)c3c(O)cccc3C2=O)CC1
5.23

// Input: CC1=C(CCC(=O)NCCCNCCCNC(=O)CCC2=C(C)C(=O)c3cccc(O)c3C2=O)C(=O)c2c(O)cccc2C1=O . Output its pIC50 only.
5.72

Tell us which pIC50 value is on record for CC1=C(CCCCC(=O)NCCCN2CCN(CCCNC(=O)CCCCC3=C(C)C(=O)c4cccc(O)c4C3=O)CC2)C(=O)c2c(O)cccc2C1=O
5.60

Please indicate pIC50 recorded for CC1=C(CCCCCC(=O)NCCCCNCCCNC(=O)CCCCCC2=C(C)C(=O)c3ccccc3C2=O)C(=O)c2ccccc2C1=O
5.77

###

biological target: Trypanothione reductase (Trypanosoma cruzi, UniProt P28593); assay: Inhibitory activity against Trypanosoma cruzi trypanothione disulfide reductase, assay in presence of 57 uM T(S)2.
parameter: pIC50
Scale: pIC50 equals -log10([C]), with [C] in mol/L.

Consider the reported pIC50 for these molecules:
• CC1=C(CCCC(=O)N2CCN(C)CC2)C(=O)c2c(O)cccc2C1=O = 4.38
• CC1=C(CCCCC(=O)NCCCNCCCNC(=O)CCCCC2=C(C)C(=O)c3ccccc3C2=O)C(=O)c2ccccc2C1=O = 4.73

Find the measured pIC50 of CC1=C(CCCC(=O)NCCCN2CCN(C)CC2)C(=O)c2ccccc2C1=O and report it.
4.36

Provide one value: measured pIC50 of CC1=C(CCC(=O)NCCCNCCCNC(=O)CCC2=C(C)C(=O)c3ccccc3C2=O)C(=O)c2ccccc2C1=O
5.30

###

Each entry below lists one item and its recorded Toxic dose value.
assay: Compound dose toxic against macrophages of Trypanosoma cruzi; assay type: ADME
// return numeric value only (unit: µM, not printed)

• CC1=C(NCCCNCCCN)C(=O)c2c(O)cccc2C1=O = 1

Please indicate Toxic dose recorded for CN1CCN(C(=O)CCCCC2=C(CCCCC(=O)N3CCN(C)CC3)C(=O)c3c(O)cccc3C2=O)CC1
10

# return recorded Toxic dose for input CC1=C(NCCCNCCCCNCCCN)C(=O)c2ccccc2C1=O
1

Answer with reported Toxic dose of CN1CCN(CCCNC(=O)CCCCCC2=C(CCCCCC(=O)NCCCN3CCN(C)CC3)C(=O)c3c(O)cccc3C2=O)CC1
30

State its Toxic dose for this compound: CC1=C(NCCCCN)C(=O)c2ccccc2C1=O
3

Please give the documented Toxic dose of CC1=CC(=O)c2ccccc2C1=O
10

Give me measured Toxic dose, please, for this compound: CC1=C(NCCCNCCCCNCCCN)C(=O)c2c(O)cccc2C1=O
1
